# ASSAYED TARGET: T1, pm6 (Y16 and Y17 sulfated; Y15 not sulfated)
# T1 construct: also called sulfated CCR8 N-terminal peptide pm6
# T1 sequence (peptide, as listed by the source): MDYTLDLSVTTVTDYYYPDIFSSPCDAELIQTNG
# ASSAY EXPLANATION: ELISA on coated peptide [cont.]

{"columns": ["BINDER", "binding result"],
 "data": [
  ["anti-CCR8 mAb 1-9 (antibody, V domains shown, Murine hybridoma mAb) VH: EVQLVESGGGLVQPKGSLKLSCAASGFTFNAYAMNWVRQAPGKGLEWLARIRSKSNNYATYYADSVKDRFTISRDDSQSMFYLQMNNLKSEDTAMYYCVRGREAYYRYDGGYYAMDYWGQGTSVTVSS VL: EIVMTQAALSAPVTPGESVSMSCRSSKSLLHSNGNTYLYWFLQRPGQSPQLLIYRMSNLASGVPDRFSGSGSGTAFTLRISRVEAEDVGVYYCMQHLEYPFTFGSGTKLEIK", "binds"],
  ["anti-CCR8 mAb 1-5 (antibody, V domains shown, Murine hybridoma mAb) VH: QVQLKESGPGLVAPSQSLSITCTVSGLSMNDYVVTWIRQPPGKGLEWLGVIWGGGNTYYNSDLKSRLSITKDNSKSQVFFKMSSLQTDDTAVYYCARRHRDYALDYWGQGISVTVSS VL: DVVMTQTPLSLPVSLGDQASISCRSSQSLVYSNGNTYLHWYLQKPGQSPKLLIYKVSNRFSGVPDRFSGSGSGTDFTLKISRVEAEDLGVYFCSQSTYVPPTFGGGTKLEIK", "binds"]
]}
